Numbers sourced from PubChem BioAssay.

- Target or test system: Fibroblast growth factor 10 (Homo sapiens) (UniProt O15520)
- Sequence (O15520 whole entry, looked up): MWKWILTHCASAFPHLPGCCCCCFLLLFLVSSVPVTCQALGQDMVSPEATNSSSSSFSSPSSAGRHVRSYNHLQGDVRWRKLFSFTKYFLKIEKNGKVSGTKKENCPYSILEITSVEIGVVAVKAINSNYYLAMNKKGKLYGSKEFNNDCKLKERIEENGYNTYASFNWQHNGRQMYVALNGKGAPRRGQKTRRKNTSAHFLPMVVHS
- Test description: FGF10 binders on small-molecule microarrays, primary screen, biochemical, small-molecule microarray, 635 nm fluorescence (AID 1102)
- Condition label: FGF10 binding, fluorescence 635 nm, higher = more signal
For each record, write down the corresponding composite z-score.
Answers are plain numbers.

Take a look at these entries with their results.
Compound	Observed measurement
CN(C)CCCNC(=O)[C@@H]1c2ccccc2C(=O)N(Cc2ccccc2Cl)[C@H]1c1ccc(CO)cc1	-0.497
N#Cc1ccc(NN2C(C(O)c3ccc(F)cc3)C=CC3C(=O)N(c4ccccc4)C(=O)C32)cc1 (configuration not stated)	-0.286
C=CCOC(=O)[C@H]1[C@@H]2C(=O)O[C@@H](c3ccccc3)[C@@H](c3ccccc3)N2[C@@H](c2ccc(OCCOC(=O)[C@H]3C[C@H]4C(=O)N[C@@H](CCCCNC(C)=O)C(=O)N4[C@H]3c3ccc(O)cc3)cc2)[C@]12C(=O)Nc1ccccc12	0.776
CC(C)N1C(=O)C[C@@](C(=O)NCCCN(C)C)(c2ccc([N+](=O)[O-])cc2)[C@H]1c1ccc(CO)cc1	-0.532
C=CCN1Cc2ccccc2[C@H]2OC(c3ccc(OCCCO)cc3)=N[C@@]2(CC=C)C1=O	1.4

Please give composite z-score for each item listed below.
1. C[C@@H]1NC(=O)[C@@]23C(=O)N[C@@H](Cc4ccccc4)C2[C@H](C)[C@@]2(C)O[C@H]2C3/C=C/C/C=C\CNC(=O)[C@@H]2CCCN2C1=O (some centres not stated)
2. Cc1ccc(S[C@]2(C(=O)NCC(F)(F)F)CC(=O)N(Cc3ccccc3)[C@@H]2c2ccc(CO)cc2I)cc1
3. COc1ccc([Si](C)(C)[C@@H]2[C@@H](CCn3cc([C@H](O)c4ccccc4)nn3)O[C@]3(C(=O)N(Cc4ccc(N5CCC5=O)cc4)c4ccccc43)[C@H]2C)cc1
4. CCOc1cc(C(O)C2C=CC3C(=O)N(c4ccccc4)C(=O)C3N2Nc2ccc(C#N)cc2)ccc1O (configuration not stated)

Result string:
1. 0.0528
2. -0.376
3. 0.137
4. 0.0415
